Molecular target: hAM2 receptor (CALCRL:RAMP3) (Homo sapiens, UniProt O60896+Q16602)
Construct: expressed in transfected cells; host or cells: GeneBLAzer CALCRL:RAMP3-CRE-bla Freestyle 293F
Sequence (Q16602 23-461): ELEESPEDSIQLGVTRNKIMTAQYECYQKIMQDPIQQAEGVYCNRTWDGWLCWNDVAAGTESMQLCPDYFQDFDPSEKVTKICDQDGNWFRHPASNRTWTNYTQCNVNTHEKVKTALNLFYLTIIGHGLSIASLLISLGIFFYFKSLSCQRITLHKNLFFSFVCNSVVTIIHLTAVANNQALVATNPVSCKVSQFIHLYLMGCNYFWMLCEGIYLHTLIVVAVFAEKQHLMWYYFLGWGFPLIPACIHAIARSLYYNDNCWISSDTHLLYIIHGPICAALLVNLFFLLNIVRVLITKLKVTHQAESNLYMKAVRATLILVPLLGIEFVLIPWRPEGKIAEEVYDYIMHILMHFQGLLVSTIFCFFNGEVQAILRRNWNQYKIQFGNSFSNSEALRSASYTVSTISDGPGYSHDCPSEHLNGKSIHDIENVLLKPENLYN
Sequence (O60896 24-148): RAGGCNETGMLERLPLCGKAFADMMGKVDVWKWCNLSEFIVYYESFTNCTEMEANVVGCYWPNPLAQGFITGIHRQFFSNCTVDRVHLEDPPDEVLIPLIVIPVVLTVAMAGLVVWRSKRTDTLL
Assay: AM2 receptor antagonist activity measured by cAMP assay (HTRF)
Type: cell-based
Conditions: selectivity ratio for hCGRP over hAM2, calculated from the IC50 values
Numbered stars: 1 amine (or outer) side, 2 acyl side, 3 side chain; on linkers, the order of the positions; unused ones are H or OH. Bridge positions count the residues as written; N and C are the ends. Square brackets hold non-standard residues; d marks the D form. Peptide text beside a SMILES is read from it. * marks the point of attachment. Phe(3-CH2NH2) = O=C([C@H](Cc1cccc(CN[*:3])c1)N[*:1])[*:2]; Phe(2-CONH2) = NC(=O)c1ccccc1C[C@H](N)C(=O)O; X5 = O=C([C@H](Cc1ccc(CO)cc1)N[*:1])[*:2]; Picolinoyl(5-F) = O=C(c1ccc(F)cn1)*; Orn(iPr) = CC(C)NCCC[C@H](N)C(=O)O; Benzoyl(4-F) = O=C(c1ccc(F)cc1)*; Oxazole2carbonyl = O=C(c1ncco1)*; 3Pal = N[C@@H](Cc1cccnc1)C(=O)O; Picolinoyl = O=C(c1ccccn1)*; Orn = NCCC[C@H](N)C(=O)O; X1 = O=C(c1ncccc1F)*
Mark criterion met for reported selectivity ratio CGRP/AM2 of 300 or greater; mark criterion not met for anything smaller.

Challenge: Check if selectivity ratio CGRP/AM2 >= 300 (inclusive). Item: CC(C)[C@@H]1NC(=O)[C@H](CC(=O)O)NC(=O)[C@H](CCCNC(=N)N)NC(=O)[C@@H](NC(=O)[C@H](Cc2ccc(O)cc2)NC(=O)[C@H](NC(=O)c2ccc(F)cc2)C(C)C)CSSC[C@@H](C(=O)N[C@@H](Cc2cccnc2)C(N)=O)NC(=O)[C@H](Cc2cccc(CN)c2)NC(=O)[C@@H]2CCCN2C(=O)CNC1=O [Compound 5] ({Benzoyl(4-F)}-[dV]YCRDVGP[Phe(3-CH2NH2)]C[3Pal]-NH2; disulfide 3-10)
Response given: criterion not met

Challenge: Quick check: does CC(C)NCCC[C@@H]1NC(=O)[C@@H](NC(=O)[C@H](Cc2ccc(O)cc2)NC(=O)[C@H](NC(=O)c2ccc(F)cn2)C(C)C)CSSC[C@@H](C(=O)N[C@@H](Cc2cccnc2)C(N)=O)NC(=O)[C@H](Cc2ccccc2)NC(=O)[C@@H]2CCCN2C(=O)CNC(=O)[C@H](C(C)C)NC(=O)[C@H](CC(=O)O)NC1=O [Compound 14] ({Picolinoyl(5-F)}-[dV]YC[Orn(iPr)]DVGPFC[3Pal]-NH2; disulfide 3-10) have selectivity ratio CGRP/AM2 greater than or equal to 300?
Response given: criterion not met

Challenge: Determine whether this compound has selectivity ratio CGRP/AM2 no lower than 300: CC(C)NCCC[C@@H]1NC(=O)[C@@H](NC(=O)[C@H](Cc2ccccc2C(N)=O)NC(=O)[C@H](NC(=O)c2ncco2)C(C)C)CSSC[C@@H](C(=O)N[C@@H](Cc2cccnc2)C(N)=O)NC(=O)[C@H](Cc2cccnc2)NC(=O)[C@@H]2CCCN2C(=O)CNC(=O)[C@H](C(C)C)NC(=O)[C@H](CC(=O)O)NC1=O [Compound 40] (Oxazole2carbonyl-[dV][Phe(2-CONH2)]C[Orn(iPr)]DVGP[3Pal]C[3Pal]-NH2; disulfide 3-10)
Response given: criterion met

Challenge: Could you verify whether the entry CC(C)[C@@H]1NC(=O)[C@H](CC(=O)O)NC(=O)[C@H](CCCN)NC(=O)[C@@H](NC(=O)[C@H](Cc2ccc(O)cc2)NC(=O)[C@H](NC(=O)c2ncccc2F)C(C)C)CSSC[C@@H](C(=O)N[C@@H](Cc2cccnc2)C(N)=O)NC(=O)[C@H](Cc2ccc(CO)cc2)NC(=O)[C@@H]2CCCN2C(=O)CNC1=O [Compound 29] (X1-[dV]YC[Orn]DVGP[X5]C[3Pal]-NH2; disulfide 3-10) shows selectivity ratio CGRP/AM2 of no less than 300?
Response given: criterion met

Challenge: Tell me whether selectivity ratio CGRP/AM2 is at least 300 here: CC(C)[C@@H]1NC(=O)[C@H](CC(=O)O)NC(=O)[C@H](CCCNC(=N)N)NC(=O)[C@@H](NC(=O)[C@H](Cc2ccc(O)cc2)NC(=O)[C@H](NC(=O)c2ccccn2)C(C)C)CSSC[C@@H](C(=O)N[C@@H](Cc2cccnc2)C(N)=O)NC(=O)[C@H](Cc2cccnc2)NC(=O)[C@@H]2CCCN2C(=O)CNC1=O [Compound 3] (Picolinoyl-[dV]YCRDVGP[3Pal]C[3Pal]-NH2; disulfide 3-10)
Response given: criterion not met

====

Would you mind telling me the reported IC50 of each entry?
Target: hAM2 receptor (CALCRL:RAMP3) (Homo sapiens, UniProt O60896+Q16602)
Construct: expressed in transfected cells; host or cells: GeneBLAzer CALCRL:RAMP3-CRE-bla Freestyle 293F
Test: AM2 receptor antagonist activity measured by cAMP assay (HTRF)
Assay type: cell-based
Details: GeneBLAzer CALCRL:RAMP3-CRE-bla Freestyle 293F cells; agonist human adrenomedullin; read-out: hAM2-R IC50 Ave
Numbered stars: 1 amine (or outer) side, 2 acyl side, 3 side chain; on linkers, the order of the positions; unused ones are H or OH. Bridge positions count the residues as written; N and C are the ends. Square brackets hold non-standard residues; d marks the D form. Peptide text beside a SMILES is read from it. * marks the point of attachment. Phe(3-CH2NH2) = O=C([C@H](Cc1cccc(CN[*:3])c1)N[*:1])[*:2]; Phe(2-CONH2) = NC(=O)c1ccccc1C[C@H](N)C(=O)O; Triazol3yl(1,2,4-5-NH2) = Nc1nc(*)n[nH]1; Picolinoyl(5-F) = O=C(c1ccc(F)cn1)*; Orn(iPr) = CC(C)NCCC[C@H](N)C(=O)O; Benzoyl(4-F) = O=C(c1ccc(F)cc1)*; Oxazole2carbonyl = O=C(c1ncco1)*; 3Pal = N[C@@H](Cc1cccnc1)C(=O)O; Picolinoyl = O=C(c1ccccn1)*; ΔPro = O=C(O)[C@@H]1C=CCN1; Orn = NCCC[C@H](N)C(=O)O; X7 = O=C(c1cc(F)ccn1)*
Answer with the value and then the unit.

Challenge: Give recorded IC50 with hAM2 receptor (CALCRL:RAMP3) (Homo sapiens, UniProt O60896+Q16602) for the following compound: CC(C)[C@@H]1NC(=O)[C@H](CC(=O)O)NC(=O)[C@H](CCCNC(=N)N)NC(=O)[C@@H](NC(=O)[C@H](Cc2ccc(O)cc2)NC(=O)[C@H](NC(=O)c2cc(F)ccn2)C(C)C)CSSC[C@@H](C(=O)N[C@@H](Cc2cccnc2)C(N)=O)NC(=O)[C@H](Cc2ccccc2)NC(=O)[C@@H]2CCCN2C(=O)CNC1=O [Compound 18] (X7-[dV]YCRDVGPFC[3Pal]-NH2; disulfide 3-10)
Response given: 0.0081 µM

Challenge: Hi! What's the reported IC50 for CC(C)NCCC[C@@H]1NC(=O)[C@@H](NC(=O)[C@H](Cc2ccccc2C(N)=O)NC(=O)[C@H](NC(=O)c2ncco2)C(C)C)CSSC[C@@H](C(=O)N[C@@H](Cc2cccnc2)C(N)=O)NC(=O)[C@H](Cc2cccc(CN)c2)NC(=O)[C@@H]2C=CCN2C(=O)CNC(=O)[C@H](C(C)C)NC(=O)[C@H](CC(=O)O)NC1=O [Compound 43] (Oxazole2carbonyl-[dV][Phe(2-CONH2)]C[Orn(iPr)]DVG[ΔPro][Phe(3-CH2NH2)]C[3Pal]-NH2; disulfide 3-10) on hAM2 receptor (CALCRL:RAMP3) (Homo sapiens, UniProt O60896+Q16602)?
Response given: 0.18 µM

Challenge: Give the reported IC50 for CC(C)[C@@H]1NC(=O)[C@H](CC(=O)O)NC(=O)[C@H](CCCNC(=N)N)NC(=O)[C@@H](NC(=O)[C@H](Cc2cccc(CN)c2)NC(=O)[C@H](NC(=O)c2ccc(F)cc2)C(C)C)CSSC[C@@H](C(=O)N[C@@H](Cc2cccnc2)C(N)=O)NC(=O)[C@H](Cc2ccc(O)cc2)NC(=O)[C@@H]2C=CCN2C(=O)CNC1=O [Compound 22] ({Benzoyl(4-F)}-[dV][Phe(3-CH2NH2)]CRDVG[ΔPro]YC[3Pal]-NH2; disulfide 3-10) (system: hAM2 receptor (CALCRL:RAMP3) (Homo sapiens, UniProt O60896+Q16602)).
Response given: 0.033 µM

Challenge: Hi! What's the reported IC50 for CC(C)NCCC[C@@H]1NC(=O)[C@@H](NC(=O)[C@H](Cc2ccccc2C(N)=O)NC(=O)[C@H](NC(=O)c2ccc(F)cn2)C(C)C)CSSC[C@@H](C(=O)N[C@@H](Cc2cccnc2)C(N)=O)NC(=O)[C@H](Cc2cccnc2)NC(=O)[C@@H]2C=CCN2C(=O)CNC(=O)[C@H](C(C)C)NC(=O)[C@H](CC(=O)O)NC1=O [Compound 38] ({Picolinoyl(5-F)}-[dV][Phe(2-CONH2)]C[Orn(iPr)]DVG[ΔPro][3Pal]C[3Pal]-NH2; disulfide 3-10) on hAM2 receptor (CALCRL:RAMP3) (Homo sapiens, UniProt O60896+Q16602)?
Response given: 0.087 µM

Challenge: Return IC50 measured with hAM2 receptor (CALCRL:RAMP3) (Homo sapiens, UniProt O60896+Q16602) given this compound: CC(C)[C@@H]1NC(=O)[C@H](CC(=O)O)NC(=O)[C@H](CCCNc2nc(N)n[nH]2)NC(=O)[C@@H](NC(=O)[C@H](Cc2ccc(O)cc2)NC(=O)[C@H](NC(=O)c2ccccn2)C(C)C)CSSC[C@@H](C(=O)N[C@@H](Cc2cccnc2)C(N)=O)NC(=O)[C@H](Cc2ccccc2)NC(=O)[C@@H]2CCCN2C(=O)CNC1=O [Compound 27] (Picolinoyl-[dV]YC[Orn](Triazol3yl(1,2,4-5-NH2))DVGPFC[3Pal]-NH2; disulfide 3-10)
Response given: 0.119 µM
